Consider the following molecules; for each one, report its IC50.
Target: Retinoic acid receptor RXR-alpha (Homo sapiens, UniProt P19793)
Sequence (P19793 whole entry): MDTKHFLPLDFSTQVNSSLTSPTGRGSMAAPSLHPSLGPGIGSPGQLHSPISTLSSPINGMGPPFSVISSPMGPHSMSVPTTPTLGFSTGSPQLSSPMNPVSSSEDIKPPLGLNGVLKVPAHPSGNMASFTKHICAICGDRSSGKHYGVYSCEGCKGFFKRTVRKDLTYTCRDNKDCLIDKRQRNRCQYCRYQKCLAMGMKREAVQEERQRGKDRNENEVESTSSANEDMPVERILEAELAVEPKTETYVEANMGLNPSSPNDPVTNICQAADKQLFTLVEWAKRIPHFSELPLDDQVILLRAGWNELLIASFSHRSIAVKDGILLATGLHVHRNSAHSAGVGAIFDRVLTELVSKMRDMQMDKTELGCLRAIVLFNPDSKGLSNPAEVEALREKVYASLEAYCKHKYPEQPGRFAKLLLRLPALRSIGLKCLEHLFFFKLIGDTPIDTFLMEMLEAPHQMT
Assay: Antagonist activity for Retinoic X receptor alpha in CV1 cells
State the answer as a number, implicitly in nM.

IC50 of C/C(=C\C(=O)O)c1cc2cccc(-c3cc(C(C)C)cc(C(C)C)c3OCCCF)c2o1 , assay on Retinoic acid receptor RXR-alpha (Homo sapiens, UniProt P19793), is 194

# C/C(=C\C(=O)O)c1cc2c(-c3cc(C(C)(C)C)cc(C(C)(C)C)c3OCCC(F)F)cccc2s1 with Retinoic acid receptor RXR-alpha (Homo sapiens, UniProt P19793): IC50 is 16

Per the reported Retinoic acid receptor RXR-alpha (Homo sapiens, UniProt P19793) data, CCCOc1c(-c2cccc3cc(/C(C)=C/C(=O)O)oc23)cc(C(C)C)cc1C(C)C has IC50 of 128

Record C/C(=C\C(=O)O)c1cc2cccc(-c3cc(C(C)C)cc(C(C)C)c3OCC(F)F)c2o1 has Retinoic acid receptor RXR-alpha (Homo sapiens, UniProt P19793) IC50 equal to 300

Tested on Retinoic acid receptor RXR-alpha (Homo sapiens, UniProt P19793): CCCOc1c(-c2cccc3sc(/C(C)=C/C(=O)O)cc23)cc(C(C)C)cc1C(C)C . Observed IC50: 16
